Provenance of the data: paper PMC9114433

Subject of test: hHAO1 (Homo sapiens, UniProt Q9UJM8)
Experiment notes: Amplex Red fluorescence hydrogen peroxide activity assay
Format: biochemical
Design: A hHAO1 construct, encoding residues Met1-Ser368, with an engineered N-terminal His6-tag; His6 (N); made in house; host or cells: E. coli BL21 (DE3)
Study conditions: glycolate 0–500 µM, compound 0–1 mM; best fitting model in GraphPad Prism
Endpoint label: inhibition mode with respect to glycolate

Cc1cc(NC(=O)N2CCN(c3cccc(O)c3)CC2)no1 :: mixed model inhibition
O=C(Nc1cccnc1)N1CCN(c2ccccc2O)CC1 :: mixed model inhibition

---

# LLEAT (Astex lipophilic ligand efficiency score) values compiled below
Subject of test: hHAO1 (Homo sapiens)
Experiment notes: Amplex Red fluorescence hydrogen peroxide activity assay
Type: biochemical
Set-up: A hHAO1 construct, encoding residues Met1-Ser368, with an engineered N-terminal His6-tag; His6 (N); made in house; host or cells: E. coli BL21 (DE3)
Study conditions: from hHAO1 IC50
Endpoint label: LLEAT (Astex lipophilic ligand efficiency score)

NCCNC(=O)c1n[nH]c2ccccc12 [Compound 8] :: 0.47 kcal/mol
Cc1cc(NC(=O)N2CCN(c3cccc(O)c3)CC2)no1 [Compound 14] :: 0.25 kcal/mol
O=C(NO)c1n[nH]c2ccccc12 [Compound 7] :: 0.40 kcal/mol
CC1=NC(=O)NC(=O)C1N (centres unmarked) [Compound 12] :: 0.89 kcal/mol
Cn1cc(N)c(=O)[nH]c1=O [Compound 11] :: 0.88 kcal/mol
O=C(Nc1cccnc1)N1CCN(c2ccccc2O)CC1 [Compound 13] :: 0.30 kcal/mol
Nc1c(C(=O)O)[nH]c(=O)[nH]c1=O [Compound 9] :: 0.71 kcal/mol
Cn1cc(N)c(=O)n(C)c1=O [Compound 10] :: 0.77 kcal/mol

---

Subject of test: hHAO1 (Homo sapiens)
Sequence (Q9UJM8 1-368): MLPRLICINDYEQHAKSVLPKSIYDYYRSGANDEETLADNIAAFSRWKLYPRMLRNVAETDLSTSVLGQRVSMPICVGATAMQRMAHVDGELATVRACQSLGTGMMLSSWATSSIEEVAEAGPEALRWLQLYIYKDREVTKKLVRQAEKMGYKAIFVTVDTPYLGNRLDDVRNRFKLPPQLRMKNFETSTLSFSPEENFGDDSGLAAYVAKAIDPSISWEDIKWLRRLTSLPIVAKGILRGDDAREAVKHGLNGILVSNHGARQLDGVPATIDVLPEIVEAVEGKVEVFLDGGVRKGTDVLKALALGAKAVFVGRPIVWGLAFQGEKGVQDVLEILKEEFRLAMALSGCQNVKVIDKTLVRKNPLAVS
Experiment notes: Amplex Red fluorescence hydrogen peroxide activity assay
Format: biochemical
Parameters: A hHAO1 construct, encoding residues Met1-Ser368, with an engineered N-terminal His6-tag; His6 (N); made in house; host or cells: E. coli BL21 (DE3)
Study conditions: Vmax in the presence of 1 mM compound; reaction rate as µM
Endpoint label: Vmax, Best-fit, 1 mM (µM)

Cc1cc(NC(=O)N2CCN(c3cccc(O)c3)CC2)no1 :: 43.12
NCCNC(=O)c1n[nH]c2ccccc12 :: 54.60
O=C(NO)c1n[nH]c2ccccc12 :: 47.76
Nc1c(C(=O)O)[nH]c(=O)[nH]c1=O :: 56.25
Cn1cc(N)c(=O)n(C)c1=O :: 56.47
Cn1cc(N)c(=O)[nH]c1=O :: 55.85
O=C(Nc1cccnc1)N1CCN(c2ccccc2O)CC1 :: 27.28
CC1=NC(=O)NC(=O)C1N (centres unmarked) :: 54.05

---

# pIC50 values compiled below
Subject of test: hHAO1 (Homo sapiens, UniProt Q9UJM8)
Experiment notes: Amplex Red fluorescence hydrogen peroxide activity assay
Type: biochemical
Design: A hHAO1 construct, encoding residues Met1-Ser368, with an engineered N-terminal His6-tag; His6 (N); made in house; host or cells: E. coli BL21 (DE3)
Study conditions: 30 µM glycolate; 95% confidence interval of fit; read-out: 95% CI IC50
pIC50: −log10 of the molar value.
Endpoint label: pIC50

O=C(Nc1cccnc1)N1CCN(c2ccccc2O)CC1 :: 4.15 to 4.56
CC1=NC(=O)NC(=O)C1N (centres unmarked) :: 4.42 to 4.70
Cc1cc(NC(=O)N2CCN(c3cccc(O)c3)CC2)no1 :: 3.59 to 4.00
Nc1c(C(=O)O)[nH]c(=O)[nH]c1=O :: 3.71 to 4.32
O=C(NO)c1n[nH]c2ccccc12 :: 3.67 to 3.96
NCCNC(=O)c1n[nH]c2ccccc12 :: 3.93 to 4.24
Cn1cc(N)c(=O)n(C)c1=O :: 4.04 to 4.40
Cn1cc(N)c(=O)[nH]c1=O :: 4.15 to 4.64

---

Subject of test: hHAO1 (Homo sapiens, UniProt Q9UJM8)
Experiment notes: Amplex Red fluorescence hydrogen peroxide activity assay
Format: biochemical
Parameters: A hHAO1 construct, encoding residues Met1-Ser368, with an engineered N-terminal His6-tag; His6 (N); made in house; host or cells: E. coli BL21 (DE3)
Study conditions: compound 0–1 mM vs glycolate 0–500 µM; read-out: Ki (Best-fit)
pKi: −log10 of the molar value.
# pKi values compiled below
Endpoint label: pKi

O=C(NO)c1n[nH]c2ccccc12 :: 4.22
Cn1cc(N)c(=O)[nH]c1=O :: 3.63
CC1=NC(=O)NC(=O)C1N (centres unmarked) :: 3.83
NCCNC(=O)c1n[nH]c2ccccc12 :: 4.39
Nc1c(C(=O)O)[nH]c(=O)[nH]c1=O :: 3.92
O=C(Nc1cccnc1)N1CCN(c2ccccc2O)CC1 :: 4.16
Cc1cc(NC(=O)N2CCN(c3cccc(O)c3)CC2)no1 :: 4.00
Cn1cc(N)c(=O)n(C)c1=O :: 3.78

---

Subject of test: hHAO1 (Homo sapiens)
Experiment notes: Amplex Red fluorescence hydrogen peroxide activity assay
Assay type: biochemical
Parameters: A hHAO1 construct, encoding residues Met1-Ser368, with an engineered N-terminal His6-tag; His6 (N); made in house; host or cells: E. coli BL21 (DE3)
Study conditions: relative to parent fragment scaffold (fragment 1 for 7, 8; fragment 2 for 9–12)
Endpoint label: fold increase in potency

O=C(NO)c1n[nH]c2ccccc12 :: 5 fold
CC1=NC(=O)NC(=O)C1N (stereo not drawn) :: more than 10 fold
NCCNC(=O)c1n[nH]c2ccccc12 :: 5 fold
Nc1c(C(=O)O)[nH]c(=O)[nH]c1=O :: more than 10 fold
Cn1cc(N)c(=O)n(C)c1=O :: more than 10 fold
Cn1cc(N)c(=O)[nH]c1=O :: more than 10 fold
